Test system: U2OS
ASSAY EXPLANATION: cell viability relative to DMSO; higher = less toxic
DETAILS: 72 h; 1000 nM
Would you kindly list cell viability for each of these compounds?
Answer in %, number only, no unit symbol.

Entry O=C(O)CNC(=O)c1c(O)c2ccccc2n(Cc2ccccc2)c1=O [IOX2] , system U2OS: what cell viability was measured?
98.5

Now give it for CC(C)[C@H](CO)Nc1nc(Nc2cccc(Cl)c2)c2ncn(C(C)C)c2n1 [purvalanol-A] too.
99

Now give it for C/C(=C\c1csc(C)n1)[C@@H]1C[C@@H]2O[C@]2(C)CCC[C@H](C)[C@H](O)[C@@H](C)C(=O)C(C)(C)[C@@H](O)CC(=O)N1 [ixabepilone] too.
41.3

Now give it for Clc1cccc(-c2nnnn2Cc2cccnc2)c1Cl too.
99.3

Now give it for CC[C@]12CCCN3CCc4c(n(c5ccccc45)[C@@](O)(C(=O)OC)C1)[C@@H]32 [vincamine] too.
99.7

Now give it for O=c1[nH]c(=O)n([C@H]2C[C@H](O)[C@@H](CO)O2)cc1I [idoxuridine] too.
106

Now give it for N=C(N)NCCC[C@@H](NC(=O)[C@@H]1CCCN1C(=O)[C@@H]1CSSCCC(=O)N[C@@H](Cc2ccc(O)cc2)C(=O)N[C@@H](Cc2ccccc2)C(=O)N[C@@H](CCC(N)=O)C(=O)N[C@@H](CC(N)=O)C(=O)N1)C(=O)NCC(N)=O [desmopressin-acetate] too.
96.3

Now give it for CCCCCCCCCCCCCCCCO [1-hexadecanol] too.
97.3

---

Test system: Caco-2
ASSAY EXPLANATION: drug sensitivity score (DSS) for viability; higher = more toxic; extreme values may be limits of the assay
DETAILS: 72 h
Would you kindly list drug sensitivity score for each of these compounds?
Output: the number by itself.

Which drug sensitivity score value is on record for NC/C(=C/F)CCc1ccc(F)cc1 ?
0

Now give it for Nc1ncnc2c1ncn2[C@@H]1O[C@@H]2COP(=O)(O)O[C@H]2[C@H]1O too.
0

Now give it for O=C(Nc1cc(C(F)(F)F)cc(C(F)(F)F)c1)Nc1c(Br)cc(Br)cc1-c1nnn[nH]1 too.
0

---

Tested on: Vero E6
ASSAY EXPLANATION: cell viability relative to DMSO; higher = less toxic
DETAILS: 72 h; 1 nM
MEASURED PROPERTY: cell viability

Which cell viability value is on record for O=C(O)CCCCCCNC1c2ccccc2CCc2ccccc21 ?
104%

Now give it for CN(C(=O)/C=C/c1ccoc1)[C@@H]1CC[C@@]2(O)[C@H]3Cc4ccc(O)c5c4[C@@]2(CCN3CC2CC2)[C@H]1O5 too.
90.6%

Now give it for Nc1nccs1 too.
105%

Now give it for O=C(O)c1cc(O)c2ccc(Cl)cc2n1 too.
96.7%

Now give it for CN(c1ccccc1CNc1nc(Nc2ccc3c(c2)CC(=O)N3)ncc1C(F)(F)F)S(C)(=O)=O too.
97%

Now give it for OCc1ccc(O[C@@H]2O[C@H](CO)[C@@H](O)[C@H](O)[C@H]2O)cc1 too.
95.4%

Now give it for C[n+]1cc2c3c(ccc2c2ccc4cc5c(cc4c21)OCO5)OCO3 [sanguinarium-chloride] too.
109%

Now give it for O=c1cc(-c2ccc(O)cc2)oc2cc(O)cc(O)c12 too.
101%

Now give it for C[C@@H]1Cc2c([nH]c3ccccc23)[C@@H](c2c(F)cc(/C=C/C(=O)O)cc2F)N1CC(C)(C)F too.
102%

Now give it for NCC1OC(C23CC4CC(CC(C4)C2)C3)Cc2c1ccc(O)c2O (stereo unspecified) too.
94%

Now give it for Cc1cc(-c2nc(C(=O)Nc3cn(C4CCOCC4)nc3C(N)=O)co2)ccn1 too.
93.5%

Now give it for CCC1(CC)C(=O)NC(=O)N(C)C1=O too.
93%

Now give it for C1CCC(C(CC2CCCCN2)C2CCCCC2)CC1 (stereo unspecified) too.
106%

Now give it for O=C1C(CC[S+]([O-])c2ccccc2)C(=O)N(c2ccccc2)N1c1ccccc1 (stereo unspecified) too.
106%

Now give it for CCOC(=O)c1ccc(NC2CCCCC2)c(N)c1 too.
97.6%

Now give it for O=C(CCc1ccc(O)cc1)c1c(O)cc(O)cc1O too.
105%

Now give it for O=C1c2ccccc2C(=O)c2ccccc21 too.
105%

Now give it for Cn1ncc(Cl)c1-c1cc(C(=O)N[C@H](CN)Cc2cccc(F)c2)sc1Cl too.
91.8%

Now give it for CCCNC(=O)NS(=O)(=O)c1ccc(Cl)cc1 [chlorpropamide] too.
97.5%

Now give it for CCCCCCCCCCCCCCCCNc1ccc(C(=O)O)cc1 too.
99.8%

Now give it for CC(=O)Nc1cccc2c1c(Sc1ccc(Cl)cc1)c(C)n2CC(=O)O too.
98.6%

Now give it for CC1OC2(CS1)CN1CCC2CC1 (stereo unspecified) too.
96.7%

Now give it for Oc1c(I)cc(I)c(O)c1I too.
101%

Now give it for CCCCCC(=O)O[C@]1(C(C)=O)CC[C@H]2[C@@H]3CCC4=CC(=O)CC[C@]4(C)[C@H]3CC[C@@]21C [17-hydroxyprogesterone-caproate] too.
97.8%

Now give it for CCN1CCCC1=O too.
103%

Now give it for COc1cc2c(NC3CCN(C)CC3)nc(N3CCCN(C)CC3)nc2cc1OCCCN(C)C too.
96.7%
